Listed below: CC50 values for each entry.
procedureText: Cytotoxicity (MTT cell viability) on HUVEC primary cells
Assay type: cell-based
appliedConditions: human

structurenotation=Nc1ccc(S(=O)(=O)Nc2nccs2)cc1 result="~250 µg/mL"

-- ask # query: CC50 of entry [H]/N=C(/N)NS(=O)(=O)c1ccc(N)cc1
-- reply ~500 µg/mL
